Values were extracted from patent US6759419B2.

# SYSTEM NAME: muscarinic receptors
# ASSAY NOTES: [3H]-N-methyl-scopolamine ([3H]-NMS) affinity screening test
# CONDITIONS: inhibition of 50% of specific binding of [3H]-NMS to the receptor; cortex receptor of rats
pIC50: −log10 of the molar value.
# Lookup of reported pIC50 keyed by entry

MOLECULE	SYSTEM NAME	pIC50
CN1CCC=C(c2cc(CN3CCCC3=O)on2)C1	muscarinic receptors	5.83
COC(=O)C1=CCCN(C)C1 [Arecoline, reference compound]	muscarinic receptors	4.06
CN1CCC=C(C2=NOC(CN3CCCC3=O)C2)C1 (stereo not shown)	muscarinic receptors	6.74
CN1CCC=C(C2=NOC(N3CCCC3=O)C2)C1 (stereo not shown)	muscarinic receptors	5.08
